# System: Human gastric cancer cell MKN45
# method_description: CCK-8 cell proliferation assay, MKN-45
# Type: cell-based
# test_settings: MKN-45 cells, CCK-8, 24 hrs with drug, OD 450 nm
Kindly apply the following: 1 (yes) if IC50 is less than 50 nM, 0 (no) in every other case.

See these solved cases before continuing.
compound	category_label
O=C(NCCCCCC1CCN(C(=O)c2occc2F)C1)Nc1ccncc1 (centres unmarked)	0 (no)
O=C(NCCCCCCC1CCN(C(=O)c2ccco2)C1)Nc1cccnc1 (centres unmarked)	0 (no)

I wonder whether O=C(NCCCCCC1CCN(C(=O)C2CCCN2)C1)Nc1ccnc(F)c1 (centres unmarked) has IC50 below 50 nM. Can you tell?
0 (no)

I wonder whether O=C(NCCCCCCC1CCN(C(=O)c2ccccc2)C1)Nc1ccncc1 (centres unmarked) has IC50 below 50 nM. Can you tell?
1 (yes)

I wonder whether O=C(NCCCCCC1CCN(C(=O)c2ccc[nH]2)C1)Nc1ccncc1 (centres unmarked) has IC50 below 50 nM. Can you tell?
1 (yes)

I wonder whether O=C(NCCCCCC1CCN(C(=O)c2ccco2)C1)Nc1ccncc1 (centres unmarked) has IC50 below 50 nM. Can you tell?
1 (yes)

I wonder whether O=C(NCCCCCC1CCN(C(=O)C2CCCO2)C1)Nc1ccncc1 (centres unmarked) has IC50 below 50 nM. Can you tell?
0 (no)

I wonder whether O=C(NCCCCCC1CCN(C(=O)c2cccs2)C1)Nc1ccnc(F)c1 (centres unmarked) has IC50 below 50 nM. Can you tell?
0 (no)

I wonder whether O=C(NCCCCCC1CCN(C(=O)C2Cc3ccccc3O2)C1)Nc1ccncc1 (centres unmarked) has IC50 below 50 nM. Can you tell?
0 (no)

I wonder whether COc1cccc(OC)c1C(=O)N1CCC(CCCCCNC(=O)Nc2ccncc2)C1 (centres unmarked) has IC50 below 50 nM. Can you tell?
0 (no)

I wonder whether O=C(NCCCCCCC1CCN(C(=O)c2ccco2)C1)Nc1ccncc1 (centres unmarked) has IC50 below 50 nM. Can you tell?
1 (yes)

I wonder whether O=C(NCCCCCCC1CCN(C(=O)c2ccccc2)C1)Nc1cc(F)nc(F)c1 (centres unmarked) has IC50 below 50 nM. Can you tell?
1 (yes)

I wonder whether O=C(NCCCCC[C@H]1CCN(C(=O)c2cccs2)C1)Nc1ccncc1 has IC50 below 50 nM. Can you tell?
1 (yes)

I wonder whether O=C(NCCCCCCC1CCN(C(=O)c2ccccc2)C1)Nc1cccnc1 (centres unmarked) has IC50 below 50 nM. Can you tell?
0 (no)

I wonder whether O=C(NCCCCCCC1CCN(C(=O)c2ccc[nH]2)C1)Nc1ccncc1 (centres unmarked) has IC50 below 50 nM. Can you tell?
1 (yes)

I wonder whether O=C(/C=C/c1cccnc1)NCCCCC1CCN(C(=O)c2ccccc2)CC1 [FK866, reference compound] has IC50 below 50 nM. Can you tell?
1 (yes)
